Let's look at some molecules and their measured response vs control in vivo at 8 mg/kg.
Test system: Enrlich carcinoma
measurement-protocol: Antineoplastic activity against Enrlich carcinoma (life prolongation rate)
Format: in vivo, 5-week-old ICR mice (male)
condition-context: Mus musculus, ip, 1440 h, 8.0 mg/kg/day, intraperitoneal, once a day, 7 days; read-out: Life prolongation rate (T/C %)

{"molecule": "O=[Se](OC1CCCCC1Cl)OC1CCCCC1Cl (stereo not shown) [Compound 3-6, Di-(2-chlorcyclohexyl)selenite]", "response vs control in vivo at 8 mg/kg [%]": 253}
{"molecule": "CCc1ccncc1 [Compound 1-6]", "response vs control in vivo at 8 mg/kg [%]": 244}
{"molecule": "Cn1c(=O)c2c(ncn2Cc2ccccc2)n(C)c1=O [Compound 1-33]", "response vs control in vivo at 8 mg/kg [%]": 214}
{"molecule": "Cn1cnc2c1c(=O)n(Cc1ccccc1)c(=O)n2C [Compound 1-34]", "response vs control in vivo at 8 mg/kg [%]": 187}
{"molecule": "CCC1CO[Se](=O)O1 (stereo not shown) [Compound 3-8, 1,2-butanediolselenite]", "response vs control in vivo at 8 mg/kg [%]": 212}
{"molecule": "Brc1cccnc1 [Compound 1-14]", "response vs control in vivo at 8 mg/kg [%]": 202}
{"molecule": "CCC1(CC)CO[Se](=O)OC1 [Compound 3-9, 2,2-diethyl-1,3-propanediolselenite]", "response vs control in vivo at 8 mg/kg [%]": 223}
{"molecule": "c1ccc(-c2cccnc2)cc1 [Compound 1-10]", "response vs control in vivo at 8 mg/kg [%]": 203}
{"molecule": "Clc1cncc(Cl)c1 [Compound 1-15]", "response vs control in vivo at 8 mg/kg [%]": 191}
{"molecule": "CCCCCCC(Cl)CO[Se](=O)OCC(Cl)CCCCCC (stereo not shown) [Compound 3-4, Di-(2-chlorooctyl)selenite]", "response vs control in vivo at 8 mg/kg [%]": 180}

----------
System: Enrlich carcinoma
measurement-protocol: Antineoplastic activity against Enrlich carcinoma (life prolongation rate)
Format: in vivo, 5-week-old ICR mice (male)
condition-context: Mus musculus, ip, 1440 h, 2.0 mg/kg/day, intraperitoneal, once a day, 7 days; read-out: Life prolongation rate (T/C %)

{"compound": "O=[Se](OCC(Cl)c1ccccc1)OCC(Cl)c1ccccc1 (stereo not drawn)", "response vs control in vivo at 2 mg/kg": "154%"}
{"compound": "CCC1(CC)CO[Se](=O)OC1", "response vs control in vivo at 2 mg/kg": "152%"}
{"compound": "CCC1CO[Se](=O)O1 (stereo not drawn)", "response vs control in vivo at 2 mg/kg": "250%"}
{"compound": "Cn1cnc2c1c(=O)n(Cc1ccccc1)c(=O)n2C", "response vs control in vivo at 2 mg/kg": "122%"}
{"compound": "CCCCCCC(Cl)CO[Se](=O)OCC(Cl)CCCCCC (stereo not drawn)", "response vs control in vivo at 2 mg/kg": "156%"}
{"compound": "c1ccc(-c2ccncc2)cc1", "response vs control in vivo at 2 mg/kg": "166%"}
{"compound": "c1ccc(-c2cccnc2)cc1", "response vs control in vivo at 2 mg/kg": "251%"}
{"compound": "O=[Se](OC1CCCCC1Cl)OC1CCCCC1Cl (stereo not drawn)", "response vs control in vivo at 2 mg/kg": "210%"}
{"compound": "CCc1ccncc1", "response vs control in vivo at 2 mg/kg": "173%"}

The values you see were collected from patent US4824955A.
